assay: yeast display, Sf9 membrane polyspecificity reagent, FACS + sequencing; frameworks hold sequencing errors
Property measured: polyreactivity (PSR sort gate)

Consider the reported polyreactivity (PSR sort gate) for these sequences:
[
  {
    "Sequence record": "QVQLVESGGGLVQAGGSLRVSCAASGFTFHKYAMGWYRQAPGKDRELVAVISQSASSTYYADSVKGRFTISRDNAKNTVYFQMNGLKPEDTAVYYCNAKYYRYNRRNYWGQGTQVTVSS",
    "polyreactivity (PSR sort gate)": "high polyreactivity"
  },
  {
    "Sequence record": "QVQLVESGGGVVQAGGSLRLSCAASGRISRGNAMGWYRPAPGKEREFVAAISWSGDGTYYADSVKGRFTISRDNAKYTVYLQMNSLNPEDTAVYYCNTAVKVERDYWGQGTQVTVSS",
    "polyreactivity (PSR sort gate)": "low polyreactivity"
  },
  {
    "Sequence record": "QVQLVESGGGLVQAGGSLRLSCAASGGTIYFYDMGWYRQAPGKEREFVAAIDGSAGRTYYADSVKGRFTISRDNAKNTVYLQMNSLKPEDTAVYYCAADWAQQSEQEYGTTYDYWGQGTQVTVSS",
    "polyreactivity (PSR sort gate)": "low polyreactivity"
  },
  {
    "Sequence record": "QVQLVESGGGLVQAGGSLRLSCAASGSIFVDNAMGWYRQAPGTERELVAAINWSGGSTYYADSVKGRFTISRDNAKNTVYLQMNSLKPEDTAVYYCIAARPGQTWDEQSWYDYWGQGTQVTVSS",
    "polyreactivity (PSR sort gate)": "low polyreactivity"
  },
  {
    "Sequence record": "QVQLQESGGGMVQAGGSLRLSCAASGSIFVSVTMGWYRQAPGKERELVASIGRGSTTNHADSVKGLFTISRDNAKNIVYLLMNSLKPEDTAVYYCAALESYAKYHGYWGQGTQVTVSS",
    "polyreactivity (PSR sort gate)": "low polyreactivity"
  }
]

For every item in the list below, what is its measured polyreactivity (PSR sort gate)?
1. QVQLVESGGGLVQAGGSLRLSCAASGSIFTVYAMGWYRQAPGKERELVAVINYRGGNTYYADSVKGRFTISRDNAKNTVYLQMNSLKPEDTAVYNCATEVSWHWYQLSVPRMDYWGQGTQVTVSS
2. QVQLVESGGGLVQAGGSLRLSCAASGSIFYFNAMGWYRQAPGKERELVATIRSGDGRTYYADSVKGRFTISRDNAKNTVYLQMNSLKPEDTAVYYCNASRVVYRQAYLYGYDYWGQGTQVTVSS
3. QVQLVESGGGLVQAGGSLRLSCAASGRTFAYNAMGWYRQAPGKEREMVASITSGGSTNYADSVKGRFTISRDNAKNNVYLQINSLIPEDTAVYYCNIDGKYHLVLYDYWGQGTQVTVSS

Result:
1: low polyreactivity; 2: low polyreactivity; 3: low polyreactivity

Data credit: the nanobody polyreactivity screen of Harvey et al. (2022)
